# Test system: MOLT-4
# METHOD: NCI tumour cell line growth inhibition, 48 h
Active and inactive are the calls of the source. Cut-off read from the data, not from the text of the source: active = GI50 up to about 1.1 µM and inactive = higher.
Reported GI50 by item:

COMPOUND	GI50
O=C1CCC2(c3ccc(F)cc3)Nc3cc(Cl)ccc3N12 (stereo not drawn)	37.2 µM (inactive)
O=C1OS2(OCc3cccc4cccc2c34)c2ccccc21 (stereo not drawn)	> 100 µM (inactive)
O=C1C(=Cc2ccc(O)cc2)N=C(c2ccccc2)N1n1c(-c2ccccc2)nc2ccccc2c1=O	78.7 µM (inactive)
Oc1cc(-c2ccccc2)nc2cc(Cl)ccc12	0.675 µM (active)
C/C(CC1SCCCS1)=C(/C)CC1SCCCS1	> 100 µM (inactive)
COc1ccc([C@H]2[C@H](C)C3=Nc4ccccc4CN32)cc1	36.8 µM (inactive)
COC(=O)CCCC(=O)NC1=C(Nc2ccccc2)C(=O)c2ccccc2C1=O	16.6 µM (inactive)
O=C(NCCn1ccnn1)Nc1ccccc1	> 100 µM (inactive)
O=S(=O)(O)c1ccc2c(/N=N\c3ccc(F)cc3)c(O)c(S(=O)(=O)O)cc2c1	> 100 µM (inactive)
O=S1(=O)N=C(NCc2c[nH]c3ccccc23)N(c2ccccc2)c2ccncc21	> 100 µM (inactive)
C=CC(CBr)CCC(Br)C(C)(C)Br (stereo not drawn)	> 10 µM (inactive)
O=C1CC(C(O)(C(F)(F)F)C(F)(F)Cl)CCC1C(O)(C(F)(F)F)C(F)(F)Cl (stereo not drawn)	> 10 µM (inactive)
OCCc1ccsc1-c1sc(-c2cc(CCO)c(-c3sccc3CCO)s2)cc1CCO	7.89 µM (inactive)
CC(=O)NC(CCC(=O)C=[N+]=[N-])C(=O)O (stereo not drawn)	> 100 µM (inactive)
COC(=O)CCC(=O)NC1=C(Nc2ccccc2)C(=O)c2ccccc2C1=O	12.1 µM (inactive)
Cc1cc(C)c(C2=NOC(c3ccccc3)(c3cc(=O)n(-c4ccccc4)s3)O2)c(C)c1 (stereo not drawn)	41.9 µM (inactive)
O=c1[nH]c(=O)n(C2OC(CO)C(O)C2O)c2ccsc12 (stereo not drawn)	> 100 µM (inactive)
CCCCCCCCCCCCC(O)C(=O)O (stereo not drawn)	> 100 µM (inactive)
CC(=O)N[C@@H](Cc1ccc(O)cn1)C(=O)NCc1cccc(Cl)c1	> 100 µM (inactive)
O=C(O)c1nn[nH]c1S	> 100 µM (inactive)
CC1=NC(=Cc2ccc(O)cc2)C(=O)N1n1c(-c2ccccc2)nc2ccccc2c1=O	> 100 µM (inactive)
NC(Cc1ccc(S(=O)(=O)O)cc1)C(=O)NC(Cc1ccc(S(=O)(=O)O)cc1)C(=O)O (stereo not drawn)	> 100 µM (inactive)
CC(=O)c1ccc(-c2oc(-c3ccccc3)cc2-c2ccc3c(c2)OCO3)s1	> 100 µM (inactive)

---

# Test system: MOLT-4
# METHOD: NCI tumour cell line growth inhibition, 48 h
Calls of active or inactive are those of the source. Rule as the data show it: active = GI50 up to about 1.1 µM and inactive = higher. Numbered stars: 1 amine (or outer) side, 2 acyl side, 3 side chain; on linkers, the order of the positions; unused ones are H or OH. Bridge positions count the residues as written; N and C are the ends. Square brackets hold non-standard residues; d marks the D form. Peptide text beside a SMILES is read from it. I, II: the chains in the order shown. Actinocin(9to1) = Cc1c2oc3c(C)ccc(C(=O)[*:1])c3nc-2c(C(=O)[*:2])c(N)c1=O; X48 = O=C1CC(C(=O)[*:2])N([*:1])C1; NMeV = CN[CH](C(=O)O)C(C)C; Sar = CNCC(=O)O
Classes used: Y (active), N (inactive)

COMPOUND	GROUP
Cc1cc(C)nc(NC(=S)Nc2cccc(Cl)c2)c1	N
C1CSC[C@H]2COC[C@@H](CSCCS1)S2	N
Cc1c2oc3c(C)ccc(C(=O)NC4C(=O)NC(C(C)C)C(=O)N5CC(=O)CC5C(=O)N(C)CC(=O)N(C)C(C(C)C)C(=O)OC4C)c3nc-2c(C(=O)NC2C(=O)NC(C(C)C)C(=O)N3CC(=O)CC3C(=O)N(C)CC(=O)N(C)C(C(C)C)C(=O)OC2C)c(N)c1=O (stereo not drawn) (I: TV[X48][Sar][NMeV] / II: TV[X48][Sar][NMeV]; ester I:1-I:C, II:1-II:C; linker I:N-II:N via Actinocin(9to1); configuration not given here)	Y
O=C(/C=C/c1ccsc1)c1ccc(Cl)cc1	N
CC(C)CCC[C@@H](C)C1CCC2[C@@H]3CCC4C[C@@H](NS(C)(=O)=O)CC[C@]4(C)C3CC[C@@]21C (stereo partly drawn)	N
Oc1ccccc1-n1nc2ccc3nonc3c2n1	N
[O-][S+]1c2ccccc2N=C(c2cccc3ccccc23)CC1c1cccc2ccccc12 (stereo not drawn)	N
CC(=O)Nc1ccc(S(=O)(=O)Nc2cnc3ccccc3n2)cc1	N

src = ChEMBL document CHEMBL1201862
